growth: recorded values
# Test system: M14 melanoma
# Protocol description: NCI-60 one-dose screen, 48 h (100 = growth as untreated, 0 = no growth, -100 = all killed)
# Condition summary: 10 µM unless noted
Compounds without any hit were thinned out: in the full panel of roughly 83,000, 20% have a hit.
State just the number; it will be interpreted in %.

Answered examples (5):
The compound CC1(C)CC[C@]23CC[C@]4(C)[C@H](CC[C@@H]5[C@@]6(C)C/C(=C/O)C(=O)C(C)(C)[C@@H]6CC[C@]54C)[C@H]2[C@H]1OC3 on M14 melanoma: growth was 103

The compound CCOC(=O)c1cnn(CC(C)O)c1NC(=O)NCc1ccccc1C(F)(F)F (centres undefined) on M14 melanoma: growth was 88.6

The compound C/C(Cc1ccc(Cl)cc1)=C(\c1ccc(OCCN2CCCCCC2)cc1)c1ccc(OC(=O)c2ccccc2)cc1 on M14 melanoma: growth was -49.8

The compound O=c1cc(CP(=O)(O)O)c2cc(O)c(-c3ccccc3)cc2o1 on M14 melanoma: growth was 97.6

The compound CCCCC#Cc1c(I)n(C2OC(CO[Si](C)(C)C(C)(C)C)C3OC(C)(C)OC32)c(=O)n(C(=O)c2ccccc2)c1=O (centres undefined) on M14 melanoma: growth was 78.6

***
The compound O=C(CCCCCCCC(=O)N1CCCCC1)N1CCCCC1 on M14 melanoma: growth was 102

The compound O=CCCCOCc1ccccc1 on M14 melanoma: growth was 96.4

The compound Cn1cc(-c2csc(-c3cn(CCCN4CCOCC4)c4ccc(F)cc34)n2)c2cccnc21 on M14 melanoma: growth was 46.2

The compound O=C1Nc2ccccc2/C1=N/N1C(=O)CN(CCCl)C1=O on M14 melanoma: growth was 107

----------
# Tested on: T-47D breast
# Protocol description: NCI-60 one-dose screen, 48 h (100 = growth as untreated, 0 = no growth, -100 = all killed)
# Condition summary: 10 µM unless noted
This is part of a sample that, as a whole, favours compounds with a hit. Of some 83,000 tested, about 20% had one in any assay.
Observable: growth (%)
State just the number; it will be interpreted in %.

Answered examples (6):
Short answer for O=c1ccc2ccc(OCCN3CCCCC3)cc2o1 : growth was 95.5

Short answer for COc1ccc(C(=O)C/C(=C\c2ccc(O)c(OC)c2)C(=O)NN)cc1 : growth was 66.9

Short answer for CC(=O)N1N=C(c2ccc(Nc3nc(Nc4ccc(F)cc4)nc(Nc4ccc(F)cc4)n3)cc2)CC1c1ccc(N(C)C)cc1 (stereo not given) : growth was 25

Short answer for CCOC(=O)c1nnn(-c2no[n+]([O-])c2-c2ccc(OC)cc2)c1COc1cccc2cccnc12 : growth was 53.1

Short answer for COc1cc(/C=C/c2cc(/C=C/c3ccc(O)c(OC)c3)n(C(=O)Nc3ccc(Cl)cc3)n2)ccc1O : growth was 18.5

Short answer for COC(=O)/C=C1/SC(=Nc2ccc(F)cc2)N(CCc2c[nH]c3ccc(O)cc23)C1=O : growth was 23.7

Could you now consider this next molecule?
Short answer for CN(C)c1ccc(CNCCO)cc1 : growth was 55.5

----------
growth: recorded values
# Test system: SF-295 CNS
# Protocol description: NCI-60 one-dose screen, 48 h (100 = growth as untreated, 0 = no growth, -100 = all killed)
# Condition summary: 10 µM unless noted
Compounds without any hit were thinned out: in the full panel of roughly 83,000, 20% have a hit.
State just the number; it will be interpreted in %.

Answered examples (5):
Short answer for COc1cc(C=Nc2oc(-c3ccccc3)c(-c3ccccc3)c2C#N)cc(CN2CCCC2)c1O : growth was 98.5

Short answer for Clc1cccc(C2Cc3cnccc3-c3[nH]c4ccncc4c32)c1 (centres undefined) : growth was 28.6

Short answer for O=C(/C=C/c1cn(-c2ccccc2)nc1-c1ccccc1)CCC(=O)NO : growth was 96.1

Short answer for COc1ccc2c(c1)CC[C@@H]1[C@@H]2CC[C@]2(C)C3C(=CC(COC(C)=O)C4C(=O)N(c5ccc(Cl)cc5)C(=O)C43)C[C@@H]12 (some centres undefined) : growth was 105

Short answer for O=C(c1ccc(Br)cc1)C(Br)C(c1ccc(Cl)cc1)C(c1ccccc1)[N+](=O)[O-] (centres undefined) : growth was 95.1

***
Short answer for CC(=O)c1sc(-c2ccc(F)cc2)cc1O : growth was 105

Short answer for O=C1NC(=O)C(c2coc3cc(Br)ccc23)=C1c1c[nH]c2ccccc12 : growth was 71.1

Short answer for CC1=C(Cl)C(=O)c2cc(C)ccc2C1=O : growth was 108

Short answer for COc1cc(C=C2C(=O)NC(=S)NC2=O)cc(CN2CCCC2)c1O : growth was 104
